- ASSAY NOTES: Nα-acetyl lysine stability assay (HPLC)
- Format: physicochemical
- CONDITION: Nα-acetyl lysine in MeCN/PBS buffer, pH 7.4; read-out: half-life t1/2 towards Nα-acetyl lysine (converted)
MEASUREMENT LABEL: half-life (days)
Give bare numbers, in days.

Input line: So what's the measured half-life for this one? CCc1cnc(Nc2nc(Cl)ccc2[N+](=O)[O-])nc1N1CCN(Cc2nc3cc(C(F)(F)F)ccc3[nH]2)CC1 [Compound 2]
Output line: 48.1

###

- ASSAY NOTES: Nα-acetyl lysine stability assay (HPLC)
- Format: physicochemical
- CONDITION: Nα-acetyl lysine in sodium tetraborate buffer (28 mM); pH 10.2, corrected for aqueous degradation; read-out: half-life t1/2 towards Nα-acetyl lysine (converted)
MEASUREMENT LABEL: half-life (h)
Answers are plain numbers, in h.

Input line: So what's the measured half-life for this one? CCc1cnc(Nc2nc(Cl)ccc2[N+](=O)[O-])nc1N1CCN(Cc2nc3cc(C(F)(F)F)ccc3[nH]2)CC1
Output line: 27
